- System: K4 kissing-loop RNA reporter;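 note: bound reporter read as fluorescence of individual clusters on recovered sequencing chips by microscopy, with normalized cluster intensities fitted with a binding model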
- EXPERIMENT DESCRIPTION: apparent KD of K4 kissing-loop reporter; higher = weaker reporter binding
- PARTICULARS: Eterna round: R107; input ligand: FMN 200 uM
READOUT KIND: apparent KD of K4 kissing-loop reporter (nM)
Respond with the bare value in nM.

Q: I am curious: what apparent KD of K4 kissing-loop reporter value has been reported for AACCACUCGUUACAUCACUAUCGAGUGGAACGAGGACCGGUACGGCCGCCACUCGGUAACAAGCAGUGAUGUUGCUUGUAAGAAU [KL-SSTryp-A (BrourdMod)2 #dotplot2 strengthened] ?
Ans: 298

Q: Repeat with UACCCGUGCUACUCCAUCCAUGCCACACCGCGAGGACCGGUACGGCCGCCACUCGUCGGAAAGUGAUGUUUUCAAACAAAGUUGC
Ans: 151

Q: Repeat with CCUAUCUCAUACGAUACCAGUGAAUUAAUAUUUAUAAGCAGUGAUGUUGCAUUCCAAGUACACCCUUGGCAGCGUAUGGGAUAGG [Ex Theophylline B K4 20]
Ans: 147

Q: Repeat with AGGUCACGAGGAAGGAGCGCCCUGACAGGUUGCUGCCGUGGGCAGUGAUGUUGCUCAGUCCGGCAGGUAGGUCGCCUCGUGACCU
Ans: 151

Q: Repeat with GGUAGCAUGGCGGCCGCCACUAUAAAGAAUCCAAAGGAUUCUAGGUAGUGAUGUUACCAUAGCUAUAGGACCGGGCCAUGCUACC
Ans: 156

Q: Repeat with UAGUCCUAGUGAUGGUCAUCACGUGGCGGGCGAGGACCGGUACGGCCGCCACUCGACUUUGCAGUGAUGUUGCAAACCGGACAAU [Exclusion - Tryptophan A (Freestyle 20)]
Ans: 144
